The reported measurements were obtained from PubChem BioAssay (NCI).

System: IGROV1 ovarian
test_name: NCI tumour cell line growth inhibition, 48 h; in the data active = GI50 below about 0.43 µM; inactive = the rest
Assign a class; possible classes are active, inactive

Known results for compounds:
[[record]]
compound = "O=C(O)c1cn(C2CC2)c2cc(N3CCN(C(=O)Nc4nc(-c5ccc(Cl)cc5)cs4)CC3)c(F)cc2c1=O"
label = "inactive"

[[record]]
compound = "Nc1nn(C(=O)Nc2ccc(Cc3ccccc3)cc2)c2ccccc12"
label = "inactive"


Problem: Fill in: this test's call for COc1ccc2c(c1)N(CCO)C1=C(C(=O)OC1)C2c1cccc(Br)c1 (stereo not drawn) is ___
Result: active

Problem: Fill in: this test's call for COc1ccc(/C=C2\CCCC3=C2N=C2SC=NN2C3c2ccc(OC)c(OC)c2)cc1OC (stereo not drawn) is ___
Result: inactive

Problem: Fill in: this test's call for O=C(Nc1cccc2ccccc12)c1cc2ccccc2cc1O is ___
Result: inactive

Problem: Fill in: this test's call for O=C1[C@H](c2ccccc2)C2c3ccccc3CCN12 (stereo partly drawn) is ___
Result: inactive

Problem: Fill in: this test's call for O=C(CN/C=C\C(=O)c1cc(Cl)ccc1Cl)c1ccccc1 is ___
Result: inactive

Problem: Fill in: this test's call for CSc1ccc2c(c1)C(=O)c1c-2n(CCCN=[N+]=[N-])c(=O)c2cc([N+](=O)[O-])ccc12 is ___
Result: inactive

====

Tested on: MOLT-4 leukemia
test_name: NCI tumour cell line growth inhibition, 48 h
For each of the molecules below, state its TGI.

[[record]]
molecule = "O=C1CC23CC(=O)CC2(C1)c1ccccc1C3=O (stereo not given)"
readout = "TGI"
measured_value = "> 100 µM"

[[record]]
molecule = "CC1(C)CC[C@]2(C(=O)O)CC[C@]3(C)C(=CC[C@@H]4[C@@]5(C)CC[C@@H]6OC(C)(C)OC[C@@]6(C)[C@@H]5CC[C@]43C)[C@H]2C1"
readout = "TGI"
measured_value = "34.3 µM"

[[record]]
molecule = "O=c1[nH]c(C2CCCCC2)nc2cc(Cl)ccc12"
readout = "TGI"
measured_value = "> 100 µM"

[[record]]
molecule = "O=C1[C@H](c2ccccc2)C2c3ccccc3CCN12 (stereo not given in full)"
readout = "TGI"
measured_value = "> 100 µM"


Now take the following molecule into account.
Problem: Requested read-out: TGI. Entry: CCOC(=O)c1cc(Cl)ccc1OC(N)=O
Result: > 100 µM

====

For each of the compounds below, state its TGI.
System: LOX IMVI melanoma
test_name: NCI tumour cell line growth inhibition, 48 h
Give bare numbers, in µM.

[[record]]
chem_smiles = "Clc1ccc(-c2cc(-c3nc4ccccc4[nH]3)no2)cc1"
readout = "TGI"
unit_of_measurement = "µM"
measured_value = 35.5

[[record]]
chem_smiles = "Nc1nn(C(=O)Nc2ccc(Cc3ccccc3)cc2)c2ccccc12"
readout = "TGI"
unit_of_measurement = "µM"
measured_value = 16.1

[[record]]
chem_smiles = "CN(CCNC(=O)c1cc(-c2ccccc2)nc2ccccc12)CCNC(=O)c1cc(-c2ccccc2)nc2ccccc12"
readout = "TGI"
unit_of_measurement = "µM"
measured_value = 16


Problem: Requested read-out: TGI. Entry: CCOCC[P+](c1ccccc1)(c1ccccc1)c1ccccc1
Result: 42.3

====

System: A549 NSCLC
test_name: NCI tumour cell line growth inhibition, 48 h; in the data active means GI50 below about 0.43 µM; inactive means the rest
Where a SMILES comes first, the peptide text is derived from it. Bridges are numbered along the chain shown (N, C = ends). Roman numbers before positions name the chains, in order. [ ]: non-standard residue; d: D form. The star is where a group is joined. Heptadecanoyl = CCCCCCCCCCCCCCCCC(=O)*; Phg = N[CH](C(=O)O)c1ccccc1
Assign a class; possible classes are active, inactive

Known results for compounds:
[[record]]
compound = "Cc1cc(Cl)ccc1Nc1nc(C(F)(F)F)ccc1C(=O)N/N=C/c1ccc(F)cc1"
label = "inactive"

[[record]]
compound = "CCCCCCCCCCCCCCCCC(=O)N1CCCC1C(=O)NCC(=O)NC(C(=O)N1CCCC1C(=O)NC(CO)C(=O)NC(Cc1ccc(O)cc1)C(=O)NC(CCCCNC(=O)C1CCCN1C(=O)C(CCCCN)NC(=O)C(CCCCN)NC(=O)C(CCCCN)NC(=O)C(CCCNC(=N)N)NC(=O)C(CCCCN)NC(=O)C(N)C(C)C)C(=O)NC(CC(C)C)C(=O)NC(CCCNC(=N)N)C(=O)N1CCCC1C(=O)NCC(N)=O)c1ccccc1 (stereo not given) (I: Heptadecanoyl-PG[Phg]PSYKLRPG-NH2 / II: H-VKRKKKP; amide I:7-II:C; configuration not given here)"
label = "inactive"

[[record]]
compound = "O=C(Nc1cc(Cl)cc(Cl)c1)c1ccc(NC2=C(Cl)C(=O)N(Cc3ccccc3)C2=O)cc1"
label = "inactive"

[[record]]
compound = "CSc1ccc2c(c1)C(=O)c1c-2n(CCCN=[N+]=[N-])c(=O)c2cc([N+](=O)[O-])ccc12"
label = "inactive"

[[record]]
compound = "N=C(N)c1ccc(-c2ccc(-c3cc(Cl)cc(Cl)c3)s2)nc1"
label = "inactive"


Problem: Fill in: this test's call for CN(C)CCOc1cccc(NC2=C(Cl)C(=O)C(Nc3cccc(OCCN(C)C)c3)=C(Cl)C2=O)c1 is ___
Result: inactive

Problem: Fill in: this test's call for O=C(O)c1cn(C2CC2)c2cc(N3CCN(C(=O)Nc4nc(-c5ccc(Cl)cc5)cs4)CC3)c(F)cc2c1=O is ___
Result: inactive

Problem: Fill in: this test's call for CCN1CCN(Cc2ccc3cc(C(=O)Nc4cc(NC(=O)c5ccc6c(c5)OCCO6)ccc4F)ccc3n2)CC1 is ___
Result: active

Problem: Fill in: this test's call for COC(C(=O)[C@@H](O)[C@@H](C)O)[C@@H]1Cc2cc3cc(O[C@H]4C[C@@H](O[C@H]5C[C@@H](O)[C@H](O)C(C)O5)[C@H](O)C(C)O4)c(C)c(O)c3c(O)c2C(=O)[C@H]1O[C@H]1C[C@@H](O[C@H]2C[C@@H](O[C@H]3C[C@@H](O)[C@@H](O)C(C)O3)[C@@H](O)C(C)O2)[C@H](O)C(C)O1 (stereo not given in full) is ___
Result: inactive

Problem: Fill in: this test's call for CCC1=C[C@H]2CN(CCc3c([nH]c4ccccc34)[C@@](C(=O)OC)(c3cc4c(cc3OC)N(C)[C@H]3[C@@](O)(C(=O)OC)[C@H](OC(C)=O)[C@]5(CC)[C@@H]6C[C@@H]6CN6CC[C@]43[C@@H]65)C2)C1 is ___
Result: active
